# Test system: UACC-62 melanoma
# assay_protocol: NCI tumour cell line growth inhibition, 48 h
parameter: TGI (µM)
I only need the number, in µM, no unit after it.

Lookup: Reported TGI for COc1cc2c(/C=C3/C(=O)N(C)c4ccc(O)cc43)c(Cl)[nH]c2cc1C : what is it?
Found: 13.6

Lookup: Entry COc1cc2oc3c(c(=O)c2c(O)c1/C=C/C(C)C)C(C=C(C)C)Oc1cc(O)ccc1-3 (stereo not given) has what TGI?
Found: 32.3

Lookup: Quick one: TGI of COc1ccc(CCN2CCC(CN(C)Cc3cnn(-c4ccccc4)c3)CC2)cc1 ?
Found: 7.36

Lookup: Suppose we examine the molecule CN(CCc1ccccn1)C(=S)N/N=C(\c1ccccc1)c1ccccn1 ; what TGI value has been reported?
Found: 2.04
